molecular target: NPR-B (Mus musculus, UniProt Q6VVW5); construct: Murine NIH3T3 cells express endogenously the CNP signaling receptor, NPR-B; endogenous in cells; host or cells: NIH3T3 (murine fibroblasts); assay: Stimulation of cGMP production in NIH3T3 cells; type: cell-based, Murine; conditions: NIH3T3, […], read-out: cGMP Response rel. to 1 uM CNP22, 1 uM
Sequence (Q6VVW5 17-1047): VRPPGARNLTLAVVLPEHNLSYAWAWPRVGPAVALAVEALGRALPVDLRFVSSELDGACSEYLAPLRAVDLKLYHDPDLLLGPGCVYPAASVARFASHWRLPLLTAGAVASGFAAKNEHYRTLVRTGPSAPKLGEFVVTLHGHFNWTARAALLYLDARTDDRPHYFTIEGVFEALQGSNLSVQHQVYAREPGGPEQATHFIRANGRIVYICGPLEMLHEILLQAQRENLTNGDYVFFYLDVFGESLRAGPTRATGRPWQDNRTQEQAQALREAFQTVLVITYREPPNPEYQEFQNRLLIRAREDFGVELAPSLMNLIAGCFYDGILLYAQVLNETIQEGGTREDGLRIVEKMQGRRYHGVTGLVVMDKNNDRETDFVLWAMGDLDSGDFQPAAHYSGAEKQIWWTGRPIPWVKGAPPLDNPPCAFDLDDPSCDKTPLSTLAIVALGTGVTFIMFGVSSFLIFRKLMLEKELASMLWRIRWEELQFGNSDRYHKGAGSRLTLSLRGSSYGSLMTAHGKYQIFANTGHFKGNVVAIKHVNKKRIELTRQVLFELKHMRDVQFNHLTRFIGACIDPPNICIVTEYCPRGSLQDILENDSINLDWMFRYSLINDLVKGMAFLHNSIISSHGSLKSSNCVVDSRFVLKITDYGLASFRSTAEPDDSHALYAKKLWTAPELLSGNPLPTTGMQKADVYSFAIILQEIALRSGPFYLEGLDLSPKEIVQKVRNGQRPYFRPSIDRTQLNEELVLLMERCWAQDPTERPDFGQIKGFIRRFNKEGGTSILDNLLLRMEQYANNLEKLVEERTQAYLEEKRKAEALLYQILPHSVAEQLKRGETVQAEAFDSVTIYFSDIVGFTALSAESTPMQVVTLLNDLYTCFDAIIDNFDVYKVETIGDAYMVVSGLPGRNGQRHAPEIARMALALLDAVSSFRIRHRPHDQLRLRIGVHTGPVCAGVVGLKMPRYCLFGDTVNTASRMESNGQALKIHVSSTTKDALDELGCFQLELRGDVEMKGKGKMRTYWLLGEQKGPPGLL
measure_name: cGMP response relative to 1 uM CNP22 (%) at 1 µM
Answers are plain numbers, in %.

Example entries begin here.
INSERT INTO assay_data (molecule, experimental_target, unit_string, measurement) VALUES
  ('CC[C@H](C)[C@@H]1NC(=O)[C@H](CCCNC(=N)N)NC(=O)[C@H](CC(=O)O)NC(=O)[C@H](CC(C)C)NC(=O)[C@H](CCCCN)NC(=O)[C@H](CC(C)C)NC(=O)CNC(=O)[C@@H](Cc2ccccc2)NC(=O)[C@@H](NC(=O)CNC(=O)[C@H](CCCCN)NC(=O)[C@H](CO)NC(=O)[C@H](CC(C)C)NC(=O)CN)CSSC[C@@H](C(=O)O)NC(=O)CNC(=O)[C@H](CC(C)C)NC(=O)CNC(=O)[C@H](CO)NC(=O)[C@H](CCSC)NC(=O)[C@H](CO)NC(=O)CNC1=O [E]', 'NPR-B (Mus musculus, UniProt Q6VVW5)', '%', 6),
  ('CC[C@H](C)[C@@H]1NC(=O)[C@H](CCCNC(=N)N)NC(=O)[C@H](CC(=O)O)NC(=O)[C@H](CC(C)C)NC(=O)[C@H](CCCCN)NC(=O)[C@H](CC(C)C)NC(=O)CNC(=O)[C@H](Cc2cccc(Cl)c2)NC(=O)[C@@H](NC(=O)CNC(=O)[C@H](CCCCN)NC(=O)[C@H](CO)NC(=O)[C@H](CC(C)C)NC(=O)CN)CSSC[C@@H](C(=O)O)NC(=O)CNC(=O)[C@H](CC(C)C)NC(=O)CNC(=O)[C@H](CO)NC(=O)[C@H](CCSC)NC(=O)[C@H](CO)NC(=O)CNC1=O [G]', 'NPR-B (Mus musculus, UniProt Q6VVW5)', '%', 93),
  ('CC[C@H](C)[C@@H]1NC(=O)[C@H](CCCNC(=N)N)NC(=O)[C@H](CC(=O)O)NC(=O)[C@H](CC(C)C)NC(=O)[C@H](CCCCN)NC(=O)[C@H](CC(C)C)N(C)C(=O)CNC(=O)[C@H](Cc2ccccc2)NC(=O)[C@@H](NC(=O)CNC(=O)[C@H](CCCCN)NC(=O)[C@H](CO)NC(=O)[C@H](CC(C)C)NC(=O)CN)CSSC[C@@H](C(=O)O)NC(=O)CNC(=O)[C@H](CC(C)C)N(C)C(=O)CNC(=O)[C@H](CO)NC(=O)[C@H](CCSC)NC(=O)[C@H](CO)NC(=O)CNC1=O [K]', 'NPR-B (Mus musculus, UniProt Q6VVW5)', '%', 1),
  ('CC[C@H](C)[C@@H]1NC(=O)[C@H](CCCNC(=N)N)NC(=O)[C@H](CC(=O)O)NC(=O)[C@H](CC(C)C)N(C)C(=O)[C@H](CCCCN)NC(=O)[C@H](CC(C)C)N(C)C(=O)CNC(=O)[C@H](Cc2ccccc2)NC(=O)[C@@H](NC(=O)CNC(=O)[C@H](CCCCN)NC(=O)[C@H](CO)NC(=O)[C@H](CC(C)C)NC(=O)CN)CSSC[C@@H](C(=O)O)NC(=O)CNC(=O)[C@H](CC(C)C)N(C)C(=O)CNC(=O)[C@H](CO)NC(=O)[C@H](CCSC)NC(=O)[C@H](CO)NC(=O)CNC1=O [L]', 'NPR-B (Mus musculus, UniProt Q6VVW5)', '%', 10),
  ('CC[C@H](C)[C@@H]1NC(=O)[C@H](CCCNC(=N)N)NC(=O)[C@H](CC(=O)O)NC(=O)[C@H](CC(C)C)N(C)C(=O)[C@H](CCCCN)NC(=O)[C@H](CC(C)C)N(C)C(=O)CNC(=O)[C@H](Cc2ccccc2)NC(=O)[C@@H](NC(=O)CNC(=O)[C@H](CCCCN)NC(=O)[C@H](CO)NC(=O)[C@H](CC(C)C)NC(=O)CN)CSSC[C@@H](C(=O)O)NC(=O)CNC(=O)[C@H](CC(C)C)NC(=O)CNC(=O)[C@H](CO)NC(=O)[C@H](CCSC)NC(=O)[C@H](CO)NC(=O)CNC1=O [M]', 'NPR-B (Mus musculus, UniProt Q6VVW5)', '%', 11);

Now for another entry.
cGMP response relative to 1 uM CNP22 (%) at 1 µM reported for this molecule CC[C@@H](C)[C@H]1NC(=O)[C@@H](CCCNC(=N)N)NC(=O)[C@@H](CC(=O)O)NC(=O)[C@@H](CC(C)C)NC(=O)[C@@H](CCCCN)NC(=O)[C@@H](CC(C)C)NC(=O)CNC(=O)[C@@H](Cc2ccccc2)NC(=O)[C@H](NC(=O)CNC(=O)[C@@H](CCCCN)NC(=O)[C@@H](CO)NC(=O)[C@@H](CC(C)C)NC(=O)CN)CSSC[C@H](C(=O)O)NC(=O)CNC(=O)[C@@H](CC(C)C)NC(=O)CNC(=O)[C@@H](CO)NC(=O)[C@@H](CCSC)NC(=O)[C@@H](CO)NC(=O)CNC1=O [N] : 1
